solubility values, listed per item
Test: Aqueous solubility estimated by nephelometry
Format: physicochemical
Details: kinetic from dmso stock; Table 2; water; read-out: Solubility water

>  <CHEMICAL_STRUCTURE>
Cc1cc(/C=C2/Nc3cc[nH]c(=O)c3C2=O)c(C)n1-c1ccccc1C(F)(F)F

>  <solubility>
> 125 µM

$$$$
>  <CHEMICAL_STRUCTURE>
Cc1cc(/C=C2/Nc3ccn(Cc4ccc(C(F)(F)F)cc4)c(=O)c3C2=O)c(C)n1-c1ccccc1C(F)(F)F

>  <solubility>
89 µM

$$$$
>  <CHEMICAL_STRUCTURE>
Cc1cc(/C=C2/Nc3ccn(Cc4ccncc4)c(=O)c3C2=O)c(C)n1-c1ccccc1C(F)(F)F

>  <solubility>
> 125 µM

$$$$
>  <CHEMICAL_STRUCTURE>
Cc1cc(/C=C2/Nc3ccn(C)c(=O)c3C2=O)c(C)n1-c1ccccc1C(F)(F)F

>  <solubility>
> 125 µM

$$$$
>  <CHEMICAL_STRUCTURE>
CCn1ccc2c(c1=O)C(=O)/C(=C\c1cc(C)n(-c3ccccc3C(F)(F)F)c1C)N2

>  <solubility>
> 125 µM

$$$$
>  <CHEMICAL_STRUCTURE>
CCOC(=O)C1=C(/C=C/N(C)C)N/C(=C/c2cc(C)n(-c3ccccc3C(F)(F)F)c2C)C1=O

>  <solubility>
> 125 µM

$$$$

* * *

System: Plasmodium falciparum K1
Experiment: microbe, parasite or virus in culture
Format: cell-based
Details: Plasmodium falciparum, K1, read-out: EC50 P. falc.
Method: V. Design and Results of the in vitro & in vivo Studies. A. Drug inhibition of in vitro cultured P. falciparum parasite:2 All in vitro assays were carried out twice independently. In vitro activity against the erythrocytic stages of P. falciparum was determined by using a 3H-hypoxanthine incorporation assay,5-6 using the […] were dissolved in DMSO at 10 mg/mL and added to parasite cultures incubated in RPMI […] haematocrit (0.3% parasitaemia). […]
EC50 values, listed per item

>  <MOLECULE>
CCOC(=O)C1=C(C)N/C(=C/c2cc(C)n(C3CCN(Cc4ncc[nH]4)CC3)c2C)C1=O [Compound 46]

>  <EC50 / nM>
1200

$$$$
>  <MOLECULE>
Cc1cc(/C=C2/Nc3ccn(CCN4CCOCC4)c(=O)c3C2=O)c(C)n1-c1ccccc1C(F)(F)F [Compound 60]

>  <EC50 / nM>
230

$$$$
>  <MOLECULE>
CCOC(=O)C1=C(C)N/C(=C/c2cc(C)n(C3CCN(Cc4ccn(C)n4)CC3)c2C)C1=O [Compound 45]

>  <EC50 / nM>
150

$$$$
>  <MOLECULE>
CCOC(=O)C1=C(C)N/C(=C/c2cc(C)n(C3CCN(Cc4ccc(F)cc4F)CC3)c2C)C1=O [Compound 27]

>  <EC50 / nM>
23

$$$$
>  <MOLECULE>
CCOC(=O)C1=C(C)N/C(=C/c2cc(C)n(C3CCN(c4ccc(C(F)(F)F)cc4)CC3)c2C)C1=O [Compound 30]

>  <EC50 / nM>
24

$$$$
>  <MOLECULE>
CCOC(=O)C1=C(C)N/C(=C/c2cc(C)n(C3CCN(Cc4cc(C)on4)CC3)c2C)C1=O [Compound 47]

>  <EC50 / nM>
100

$$$$
>  <MOLECULE>
CCOC(=O)C1=C(C)N/C(=C/c2cc(C)n(C3CCN(CC4CC4)CC3)c2C)C1=O [Compound 39]

>  <EC50 / nM>
3500

$$$$
>  <MOLECULE>
Cc1cc(/C=C2/Nc3ccn(Cc4ccc(C(F)(F)F)cc4)c(=O)c3C2=O)c(C)n1-c1ccccc1C(F)(F)F [Compound 63]

>  <EC50 / nM>
46

$$$$
>  <MOLECULE>
CCOC(=O)C1=C(C)N/C(=C/c2cc(C)n(C3CCN(CCc4ccc(C(F)(F)F)cc4)CC3)c2C)C1=O [Compound 33]

>  <EC50 / nM>
130

$$$$
>  <MOLECULE>
CCOC(=O)C1=C(C)N/C(=C/c2cc(C)n(C3CCN(Cc4ccc(F)cc4)CC3)c2C)C1=O [Compound 26]

>  <EC50 / nM>
24

$$$$
>  <MOLECULE>
CCOC(=O)C1=C(C)N/C(=C/c2cc(C)n(C3CCN(Cc4cccn4C)CC3)c2C)C1=O [Compound 50]

>  <EC50 / nM>
12

$$$$
>  <MOLECULE>
CCOC(=O)C1=C(C)N/C(=C/c2cc(C)n(C3CCN(Cc4cocn4)CC3)c2C)C1=O [Compound 48]

>  <EC50 / nM>
18

$$$$
>  <MOLECULE>
Cc1cc(/C=C2/Nc3ccn(C)c(=O)c3C2=O)c(C)n1-c1ccccc1C(F)(F)F [Compound 57]

>  <EC50 / nM>
14

$$$$
>  <MOLECULE>
CCOC(=O)C1=C(C)N/C(=C/c2cc(C)n(C3CCN(CCc4ccc(OC)cc4)CC3)c2C)C1=O [Compound 32]

>  <EC50 / nM>
83

$$$$
>  <MOLECULE>
CCOC(=O)C1=C(C)N/C(=C/c2cc(C)n(C3CCN(Cc4ccc(C(F)(F)F)cc4)CC3)c2C)C1=O [Compound 28]

>  <EC50 / nM>
2

$$$$
>  <MOLECULE>
CCOC(=O)C1=C(C)N/C(=C/c2cc(C)n(C3CCN(CCN4CCCCC4)CC3)c2C)C1=O [Compound 38]

>  <EC50 / nM>
2400

$$$$
>  <MOLECULE>
CCOC(=O)C1=C(C)N/C(=C/c2cc(C)n(C3CCN(CC)CC3)c2C)C1=O [Compound 20]

>  <EC50 / nM>
2400

$$$$
>  <MOLECULE>
CCOC(=O)C1=C(C)N/C(=C/c2cc(C)n(C3CCN(CC(C)(C)C)CC3)c2C)C1=O [Compound 23]

>  <EC50 / nM>
58

$$$$
>  <MOLECULE>
CCOC(=O)C1=C(C)N/C(=C/c2cc(C)n(C3CCN(C)CC3)c2C)C1=O [Compound 19]

>  <EC50 / nM>
1400

$$$$
>  <MOLECULE>
CCCn1ccc2c(c1=O)C(=O)/C(=C\c1cc(C)n(-c3ccccc3C(F)(F)F)c1C)N2 [Compound 59]

>  <EC50 / nM>
150

$$$$
>  <MOLECULE>
Cc1cc(/C=C2/Nc3ccn(Cc4ccncc4)c(=O)c3C2=O)c(C)n1-c1ccccc1C(F)(F)F [Compound 64]

>  <EC50 / nM>
77

$$$$
>  <MOLECULE>
CCOC(=O)C1=C(C)N/C(=C/c2cc(C)n(C3CCN(Cc4ccccc4C(F)(F)F)CC3)c2C)C1=O [Compound 29]

>  <EC50 / nM>
0.5

$$$$
>  <MOLECULE>
CCCN1CCC(n2c(C)cc(/C=C3/NC(C)=C(C(=O)OCC)C3=O)c2C)CC1 [Compound 22]

>  <EC50 / nM>
1100

$$$$
>  <MOLECULE>
CCOC(=O)C1=C(C)N/C(=C/c2cc(C)n(C3CCN(CC4CCN(C)CC4)CC3)c2C)C1=O [Compound 42]

>  <EC50 / nM>
1400

$$$$
>  <MOLECULE>
CCOC(=O)C1=C(C)N/C(=C/c2cc(C)n(C3CCN(CCc4ccccc4)CC3)c2C)C1=O [Compound 31]

>  <EC50 / nM>
320

$$$$
>  <MOLECULE>
CCOC(=O)C1=C(C)N/C(=C/c2cc(C)n(C3CCN(CCc4ccc(F)cc4)CC3)c2C)C1=O [Compound 34]

>  <EC50 / nM>
96

$$$$
>  <MOLECULE>
CCOC(=O)C1=C(C)N/C(=C/c2cc(C)n(C3CCN(Cc4ccc(N5CCOCC5)nc4)CC3)c2C)C1=O [Compound 52]

>  <EC50 / nM>
1500

$$$$
>  <MOLECULE>
CCOC(=O)C1=C(C)N/C(=C/c2cc(C)n(C3CCN(Cc4nccn4C)CC3)c2C)C1=O [Compound 49]

>  <EC50 / nM>
1000

$$$$
>  <MOLECULE>
CCOC(=O)C1=C(C)N/C(=C/c2cc(C)n(C3CCN(CC4CCCCC4)CC3)c2C)C1=O [Compound 40]

>  <EC50 / nM>
16

$$$$
>  <MOLECULE>
CCOC(=O)C1=C(C)N/C(=C/c2cc(C)n(C3CCN(C(C)c4ccc(C(F)(F)F)cc4)CC3)c2C)C1=O (stereo not shown) [Compound 35]

>  <EC50 / nM>
7

$$$$
>  <MOLECULE>
Cc1cc(/C=C2/Nc3ccn(Cc4ccccc4)c(=O)c3C2=O)c(C)n1-c1ccccc1C(F)(F)F [Compound 62]

>  <EC50 / nM>
230

$$$$
